- tgt: hOx2R (Homo sapiens (Human))
- Sequence (O43614 whole entry): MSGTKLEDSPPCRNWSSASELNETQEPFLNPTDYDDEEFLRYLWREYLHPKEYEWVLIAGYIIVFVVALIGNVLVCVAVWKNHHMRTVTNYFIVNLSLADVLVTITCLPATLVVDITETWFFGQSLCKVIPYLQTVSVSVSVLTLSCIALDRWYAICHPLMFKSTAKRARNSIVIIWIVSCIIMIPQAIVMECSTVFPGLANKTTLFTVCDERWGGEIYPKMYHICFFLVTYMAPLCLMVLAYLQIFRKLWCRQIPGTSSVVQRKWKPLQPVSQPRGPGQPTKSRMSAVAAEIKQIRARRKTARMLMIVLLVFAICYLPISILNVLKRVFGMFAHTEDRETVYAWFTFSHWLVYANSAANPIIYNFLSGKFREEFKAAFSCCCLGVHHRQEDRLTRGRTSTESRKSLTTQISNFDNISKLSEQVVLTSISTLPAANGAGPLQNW
- method description: Calcium accumulation in cells (FLIPR), hOx2R
- condition notes: inhibition of orexin A induced calcium accumulation, Cheng and Prusoff correction
pKi: −log10 of the molar value.

{"molecule": "Cc1onc(-c2ccccc2)c1CN1CCCC2(CCN(c3cnc4ccccc4n3)CC2)C1=O", "pKi": 7.06}
{"molecule": "O=C1N(Cc2cccc(-n3cccn3)n2)CCCC12CCN(c1cnc3ccccc3n1)CC2", "pKi": 7.10}
{"molecule": "O=C1N(Cc2c[nH]c3ccccc23)CCCC12CCN(c1nccc(-c3ccncc3)n1)CC2", "pKi": 6.81}
{"molecule": "O=C1N(Cc2ccccc2-c2ncco2)CCCC12CCN(c1cnc3ccccc3n1)CC2", "pKi": 7.72}
{"molecule": "CC(c1c[nH]c2ccccc12)N1CCCC2(CCN(c3cnc4ccccc4n3)CC2)C1=O (centres unmarked)", "pKi": 6.73}
{"molecule": "Cc1ccc2[nH]c(N3CCC4(CCCN(Cc5c[nH]c6ccccc56)C4=O)CC3)nc2c1", "pKi": 6.32}
{"molecule": "O=C1N(Cc2ccc(-c3ncccn3)cc2)CCCC12CCN(c1cnc3ccccc3n1)CC2", "pKi": 5.86}
{"molecule": "N#Cc1ccc(F)c(CN2CCCC3(CCN(c4cnc5ccccc5n4)CC3)C2=O)c1", "pKi": 6.85}
{"molecule": "Cc1nc2ccccc2nc1N1CCC2(CCCN(Cc3c[nH]c4ccccc34)C2=O)CC1", "pKi": 6.27}
{"molecule": "Cn1ncc2c(CN3CCCC4(CCN(c5cnc6ccccc6n5)CC4)C3=O)cccc21", "pKi": 6.71}
{"molecule": "O=C1N(Cc2c[nH]c3ccccc23)CCCC12CCN(c1nc3ccccc3o1)CC2", "pKi": 7.01}
{"molecule": "O=C1N(Cc2cnc3ccccn23)CCCC12CCN(c1cnc3ccccc3n1)CC2", "pKi": 6.59}
{"molecule": "Cc1nc2ccccn2c1CN1CCCC2(CCN(c3cnc4ccccc4n3)CC2)C1=O", "pKi": 6.33}
{"molecule": "O=C1N(Cc2cccc3cccnc23)CCCC12CCN(c1cnc3ccccc3n1)CC2", "pKi": 6.67}
{"molecule": "O=C1N(Cc2c[nH]c3ccccc23)CCCC12CCN(c1cc(-n3ccnc3)ncn1)CC2", "pKi": 6.26}
{"molecule": "Cc1cc(CN2CCCC3(CCN(c4cnc5ccccc5n4)CC3)C2=O)on1", "pKi": 5.86}
{"molecule": "O=C1N(Cc2nccn2Cc2ccccc2)CCCC12CCN(c1cnc3ccccc3n1)CC2", "pKi": 6.43}
